Hello, the source for this data is paper PMC10397247, in case you need it.

target of assay: T1, 4H2473-bA
T1 chain: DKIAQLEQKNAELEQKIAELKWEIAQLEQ
test description: two-hybrid library CCNG1;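 also: natural log of median RNA to DNA barcode read ratio; higher means stronger binding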
Examples of binders with documented interaction score follow.
Lab note: record just the number, no unit beside it.

Consider the reported interaction score for these binders:
> print(dat)
                                     binder  measurement
1  DKIAQLEQKNAELEQEIAELEWKIAQLKQ [4H2438-bA]         1.36
2  DKIAQLEQEIAELKQENAELEWKIAQLKQ [4H2134-bA]        0.432
3  DEIAQLEQEIAELKQKNAELKWEIAQLEQ [4H121-bA]        -1.11
4  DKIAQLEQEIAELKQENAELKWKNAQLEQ [4H2143-bA]       -0.712
5  DKIAQLEQKNAELEQKIAELKWEIAQLEQ [4H2473-bA]        0.144
6  DEIAQLEQENAELEQKNAELEWKIAQLKQ [4H182-bA]       -0.132

Proceeding to the next binder to report its interaction score.
# input Which interaction score is reported for this binder? DKIAQLEQENAELEQKIAELKWKNAQLEQ [4H2223-bA]
# output -0.247
